Biological target: Glutamate receptor ionotropic, kainate 5 (Homo sapiens, UniProt Q16478)
Sequence (Q16478 whole entry): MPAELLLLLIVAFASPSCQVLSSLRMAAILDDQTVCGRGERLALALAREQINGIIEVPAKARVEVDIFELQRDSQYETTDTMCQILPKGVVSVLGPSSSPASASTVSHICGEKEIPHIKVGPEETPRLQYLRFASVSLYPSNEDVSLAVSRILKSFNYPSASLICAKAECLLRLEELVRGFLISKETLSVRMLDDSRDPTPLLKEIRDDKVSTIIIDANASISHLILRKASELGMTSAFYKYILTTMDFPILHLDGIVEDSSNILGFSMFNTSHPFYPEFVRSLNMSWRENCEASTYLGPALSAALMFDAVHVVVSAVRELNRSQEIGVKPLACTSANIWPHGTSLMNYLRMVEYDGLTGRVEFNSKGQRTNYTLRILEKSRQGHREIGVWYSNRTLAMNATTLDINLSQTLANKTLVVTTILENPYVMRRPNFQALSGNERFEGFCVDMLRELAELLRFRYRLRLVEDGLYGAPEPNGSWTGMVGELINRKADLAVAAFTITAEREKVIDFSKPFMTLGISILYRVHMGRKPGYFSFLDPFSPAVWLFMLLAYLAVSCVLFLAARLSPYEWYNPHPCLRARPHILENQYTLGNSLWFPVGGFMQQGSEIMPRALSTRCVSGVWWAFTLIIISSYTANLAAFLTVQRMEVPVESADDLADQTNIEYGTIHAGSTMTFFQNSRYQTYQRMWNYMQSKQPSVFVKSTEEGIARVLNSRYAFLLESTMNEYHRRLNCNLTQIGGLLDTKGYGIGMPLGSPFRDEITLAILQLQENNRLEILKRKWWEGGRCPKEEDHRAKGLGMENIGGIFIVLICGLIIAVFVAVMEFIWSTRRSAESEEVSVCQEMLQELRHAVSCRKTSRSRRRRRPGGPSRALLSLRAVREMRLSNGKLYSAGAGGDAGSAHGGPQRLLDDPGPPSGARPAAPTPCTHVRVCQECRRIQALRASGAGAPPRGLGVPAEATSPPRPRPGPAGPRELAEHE
Experiment: Binding affinity towards cloned human Kai-2 subunit stably expressed in cultured HEK293 cells using [3]H-kainate as radioligand
Format: cell-based
pKi: −log10 of the molar value.
reported-property: pKi

(P) O=C(O)Cn1c(=O)c(=O)[nH]c2cc([N+](=O)[O-])c(-n3ccc(CN4CCC(c5ccccc5)CC4)c3)cc21
(Q) O=C(O)Cn1c(=O)c(=O)[nH]c2cc([N+](=O)[O-])c(-n3cccc3)cc21
Please indicate which has the smaller reported pKi: P , or Q . Give the chosen item's label as your response.
P
